Values were extracted from the supplement of paper PMC7840683.

tested on: HepaRG; assay: LDH release cytotoxicity, % of total lysis control; higher = more cytotoxic; settings: 0.316228 µM; 48 h
Measurement label: LDH release cytotoxicity (%)
The reply should be a number in %, with the unit left off.

Nc1ccc(Oc2ccc(N)cc2)cc1 ... -1.18

## Input So what does the record say about LDH release cytotoxicity for CN(C)C(=O)Nc1ccc(Cl)cc1 ?
## Output -2.23

###

Below, each entry is listed alongside its reported LDH release cytotoxicity.
test system: HepaRG; assay: LDH release cytotoxicity, % of total lysis control; higher = more cytotoxic; conditions: 3.16228 µM; 48 h
Don't forget the unit after the value.

Solved entries:
Nc1ccc(Nc2ccccc2)cc1 ... -0.438%
CCCCCCC(C)OC(=O)COc1nc(F)c(Cl)c(N)c1Cl (stereo not given) ... -7.7%
CSC(C)(C)CN=O ... -0.674%
Cc1cc(SC2C(=O)CC(CCc3ccc(N)cc3)(C(C)C)OC2=O)c(C(C)(C)C)cc1CO (stereo not given) ... -4.19%

Consider now this further compound.
## Input So what does the record say about LDH release cytotoxicity for CCCCCCC(C=O)=Cc1ccccc1 ?
## Output -1.53%

###

Below, each entry is listed alongside its reported LDH release cytotoxicity.
test system: HepaRG; test: LDH release cytotoxicity, % of total lysis control; higher = more cytotoxic; settings: 0.031623 µM; 48 h
The reply should be a number in %, with the unit left off.

CC(C)c1cccc(C(C)C)c1 ... -1.99
ClC1(Cl)C2(Cl)C3(Cl)C4(Cl)C(Cl)(Cl)C5(Cl)C3(Cl)C1(Cl)C5(Cl)C24Cl (stereo not given) ... 1.5
CCC(C)Nc1c([N+](=O)[O-])cc(C(C)(C)C)cc1[N+](=O)[O-] (stereo not given) ... -1.24
CCCCN(CC)c1c([N+](=O)[O-])cc(C(F)(F)F)cc1[N+](=O)[O-] ... -0.0474
COC(=O)c1ccccc1C(=O)O [Monomethyl phthalate] ... -0.688

## Input So what does the record say about LDH release cytotoxicity for CC(C)(C)c1csc(-c2cc3cc(OCc4ccccc4CC(=O)O)ccc3o2)n1 ?
## Output 1.06

## Input What would you report for Oc1ccc2ccccc2c1N=Nc1ccccc1 ?
## Output -0.466

## Input What would you report for CSc1nc(NC(C)C)nc(NC(C)C)n1 ?
## Output 1.02

## Input What would you report for CN=C=S [Methyl isothiocyanate] ?
## Output -2.69

## Input What would you report for CCOP(=S)(OCC)Oc1nc(Cl)n(C(C)C)n1 ?
## Output 0.0296

###

tested on: HepaRG; test: LDH release cytotoxicity, % of total lysis control; higher = more cytotoxic; conditions: 100 µM; 48 h
Counter-ions that a name gives are not always drawn.
Below, each entry is listed alongside its reported LDH release cytotoxicity.
Don't forget the unit after the value.

Solved entries:
COc1ccc(O)c(C(C)(C)C)c1 ... 2.22%
O=C(O)C1(C(=O)Nc2ccc(Cl)cc2Cl)CC1 [Cyclanilide] ... 4.54%
CN1COCN(Cc2cnc(Cl)s2)C1=N[N+](=O)[O-] ... 0.102%
O=P(O)(O)CCCl ... 0.34%
CC12CC1(C)C(=O)N(c1cc(Cl)cc(Cl)c1)C2=O (configuration not stated) ... -1.16%

## Input Item CC(C)(C)c1ccccc1O with HepaRG - LDH release cytotoxicity?
## Output 0.121%

## Input What would you report for COC(=O)c1ccccc1O [Methyl salicylate] ?
## Output 0.0854%

## Input What would you report for CC[C@H](C)C1O[C@]2(C=C[C@@H]1C)C[C@@H]1C[C@@H](C/C=C(\C)[C@@H](O[C@H]3C[C@H](OC)[C@@H](O[C@H]4C[C@H](OC)[C@H](NC)[C@H](C)O4)[C@H](C)O3)[C@@H](C)/C=C/C=C3\CO[C@@H]4[C@H](O)C(C)=C[C@@H](C(=O)O1)[C@]34O)O2 (some centres not stated) [Emamectin benzoate] ?
## Output 87%

## Input What would you report for Cc1ccc(N)cc1 ?
## Output 0.2%

## Input What would you report for Cc1cc(SC2C(=O)CC(CCc3ccc(N)cc3)(C(C)C)OC2=O)c(C(C)(C)C)cc1CO (configuration not stated) ?
## Output -2.25%

## Input What would you report for CCOC(=O)C(O)(c1ccc(Cl)cc1)c1ccc(Cl)cc1 [Chlorobenzilate] ?
## Output 3.46%

## Input What would you report for Nc1c(Cl)c(Cl)nc(C(=O)O)c1Cl ?
## Output 0.666%

## Input What would you report for O=[N+]([O-])c1c(Cl)c(Cl)c(Cl)c(Cl)c1Cl ?
## Output 2.25%

## Input What would you report for COc1nc(NC(C)C)nc(NC(C)C)n1 ?
## Output -0.643%

## Input What would you report for C/C=C/c1ccc(OC)cc1 [(E)-Anethole] ?
## Output 1.16%

## Input What would you report for CC(C)(C)C(O)C(Cc1ccc(Cl)cc1)n1cncn1 (configuration not stated) ?
## Output -0.278%

## Input What would you report for O=[N+]([O-])c1ccc(Cl)cc1 ?
## Output 18%

## Input What would you report for O=C(OCCCCCOC(=O)c1ccccc1)c1ccccc1 [Pentane-1,5-diyl dibenzoate] ?
## Output -0.0778%

## Input What would you report for C#CC1(O)CCC2C3CCC4=CC(=O)CCC4C3CCC21C (configuration not stated) ?
## Output 2.69%

## Input What would you report for CCCCCOC(=O)c1ccccc1C(=O)OCCCCC [Dipentyl phthalate] ?
## Output 43.3%

## Input What would you report for OC(c1ccc(Cl)cc1)(c1cncnc1)c1ccccc1Cl (configuration not stated) ?
## Output 15.4%

## Input What would you report for O=C(O)c1cc(N=Nc2ccc(S(=O)(=O)Nc3ccccn3)cc2)ccc1O ?
## Output 1.04%

## Input What would you report for CCCCC(CC)CN1C(=O)C2C3C=CC(C3)C2C1=O (configuration not stated) [Octylbicycloheptenedicarboximide] ?
## Output 8.34%

## Input What would you report for COc1cc(-c2ccc(N)c(OC)c2)ccc1N [3,3'-Dimethoxybenzidine dihydrochloride] ?
## Output 3.4%

## Input What would you report for CCCCOC(=O)c1ccccc1 [Butyl benzoate] ?
## Output 0.0897%

## Input What would you report for c1ccc2c(c1)-c1cccc3cccc-2c13 ?
## Output -2.77%

## Input What would you report for CC12C=CC3=C4CCC(=O)C=C4CCC3C1CCC2O (configuration not stated) ?
## Output 0.211%
